FYI, the data here is from patent US12492181B2.

Molecular target: hMC2 receptor (crude hMC2R membranes from CRE-bla-CHO-K1 cells stably expressing hMC2 receptor and hMRAP accessory protein) (Homo sapiens, UniProt Q01718)
Sequence (Q01718 whole entry): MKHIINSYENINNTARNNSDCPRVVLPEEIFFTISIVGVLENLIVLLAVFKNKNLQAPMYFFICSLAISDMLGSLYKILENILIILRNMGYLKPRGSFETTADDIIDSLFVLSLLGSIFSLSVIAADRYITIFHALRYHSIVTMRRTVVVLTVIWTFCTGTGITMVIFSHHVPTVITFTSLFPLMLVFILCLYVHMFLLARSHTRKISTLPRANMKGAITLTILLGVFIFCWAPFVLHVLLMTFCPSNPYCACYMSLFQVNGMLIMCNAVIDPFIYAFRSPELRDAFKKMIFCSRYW
Sequence (Q8TCY5 whole entry partner): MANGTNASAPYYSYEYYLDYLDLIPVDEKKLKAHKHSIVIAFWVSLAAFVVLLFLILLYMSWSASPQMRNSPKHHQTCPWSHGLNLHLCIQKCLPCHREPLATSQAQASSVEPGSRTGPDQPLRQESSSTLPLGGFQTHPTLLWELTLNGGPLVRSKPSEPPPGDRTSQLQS
Assay endpoint: Ki

Look over these answered cases.
COc1ccccc1-c1ncc(C2(C(=O)NCCN(C)C)CCN(c3ccc(C(F)(F)F)cc3F)CC2)cc1F	< 10 nM
CN1CC[C@H](NC(=O)C2(c3ccc(-c4cccn4C)nn3)CCN(c3ccc(C(F)(F)F)cc3Cl)CC2)C1	< 10 nM
CN1CC[C@H](NC(=O)C2(c3ccc(-c4cccn4C)nc3)CCN(c3ccc(C(F)(F)F)cc3Cl)CC2)C1	< 10 nM
CN1CC[C@H](NC(=O)C2(c3ccc(-c4cccn4C)nn3)CCN(c3ccc(Cl)cc3C#N)CC2)C1	< 10 nM

Field Ki (entry "CCOc1ncccc1-c1ccc(C2(C(=O)N[C@H]3CCN(C)C3)CCN(c3ccc(C(F)(F)F)cc3F)CC2)nn1" ) reads < 10 nM

Entry under test: "COc1ccccc1-c1ccc(C2(NC(=O)O[C@H]3CCN(C)C3)CCN(c3ccc(C(F)(F)F)cc3C#N)CC2)cn1" . Its Ki was < 10 nM

Per the records, this compound ( "COc1ccccc1-c1ncc(C2(NC(=O)CN(C)C)CCN(c3ccc(C(F)(F)F)cc3C#N)CC2)cc1F" ) has Ki equal to < 10 nM

// sample "CN1CC[C@@H](NC(=O)C2(c3ccc(-c4cccc5c4OCC5)nc3)CCN(c3ccc(C(F)(F)F)cc3C#N)CC2)C1" , its Ki was 10 to 100 nM

Entry under test: "CCOc1ncccc1-c1ccc(C2(NC(=O)CCN(C)C)CCN(c3ccc(C(F)(F)F)cc3C#N)CC2)cn1" . Its Ki was < 10 nM

Notebook: "COc1ccccc1-c1ncc(C2(NC(=O)O[C@H]3CCN(C)C3)CCN(c3ccc(C(F)(F)F)cc3C#N)CC2)cc1F" , Ki read as < 10 nM

Measured Ki, "COc1ccccc1-c1ccc(C2(NC(=O)NCCN(C)C)CCN(c3ccc(C(F)(F)F)cc3C#N)CC2)cn1" : < 10 nM

Looking up "CCOc1ncccc1-c1ccc(C2(C(=O)NCCN(C)C)CCN(c3ccc(C(F)(F)F)cc3C#N)CC2)cn1" , I see its Ki listed as 10 to 100 nM
